# assayedSystem: hCA I (Homo sapiens, UniProt P00915)
# Construct: gene CA1; recombinant, obtained in-house as reported earlier; cytosolic
# Sequence (P00915 2-261): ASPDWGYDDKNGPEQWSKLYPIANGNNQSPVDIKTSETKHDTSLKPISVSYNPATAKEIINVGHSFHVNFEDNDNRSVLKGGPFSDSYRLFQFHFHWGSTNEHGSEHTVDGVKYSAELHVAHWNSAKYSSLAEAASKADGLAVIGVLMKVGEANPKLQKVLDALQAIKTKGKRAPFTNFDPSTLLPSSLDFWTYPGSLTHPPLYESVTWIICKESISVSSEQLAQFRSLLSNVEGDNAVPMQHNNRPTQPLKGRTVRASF
# measurementProtocol: stopped-flow CO2 hydration assay
# Assay type: biochemical
# reportedConditions: read-out: KI (nM)^a,b / hCA I
# Text: stopped-flow CO2 hydration assay on hCA I
propertyLabel: Ki (nM)

(a) CC1=NS(=O)(=O)Oc2ccc(Cl)cc21
(b) CC1=NS(=O)(=O)Oc2ccc(C)cc21
(c) CC1=NS(=O)(=O)Oc2ccc(F)cc21
Could you list the above molecules by Ki, going from the biggest number down? API: response body holds the labels in the requested order.
a, b, c
(a: 45700 nM, b: 21000 nM, c: 12400 nM)

* * *

# assayedSystem: hCA I (Homo sapiens)
# Construct: gene CA1; recombinant, obtained in-house as reported earlier; cytosolic
# measurementProtocol: stopped-flow CO2 hydration assay
# Type: biochemical
# reportedConditions: read-out: KI (nM)^a,b / hCA I
propertyLabel: Ki (nM)

smilesStructure: CCOC(=O)c1ccc(-c2ccc3c(c2)C(C)=NS(=O)(=O)O3)cc1
assayedSystem: hCA I (Homo sapiens)
propertyLabel: Ki
u: nM
assayValue: 19600
--
smilesStructure: CC1=NS(=O)(=O)Oc2cc(C)ccc21
assayedSystem: hCA I (Homo sapiens)
propertyLabel: Ki
u: nM
assayValue: 33200
--
smilesStructure: COc1ccc2c(c1)OS(=O)(=O)N=C2C
assayedSystem: hCA I (Homo sapiens)
propertyLabel: Ki
u: nM
assayValue: 24900

* * *

# assayedSystem: hCA II (Homo sapiens, UniProt P00918)
# Construct: gene CA2; recombinant, obtained in-house as reported earlier; cytosolic
# measurementProtocol: stopped-flow CO2 hydration assay
# Assay type: biochemical
# reportedConditions: read-out: KI (nM)^a,b / hCA II
# Text: stopped-flow CO2 hydration assay on hCA II
propertyLabel: Ki (nM)

(P) CCOC(=O)c1ccc(-c2ccc3c(c2)OS(=O)(=O)N=C3C)cc1
(Q) COc1ccc(-c2ccc3c(c2)OS(=O)(=O)N=C3C)cc1
Pick one: P or Q . Which has the bigger Ki number? Kindly give the label for the entry you pick.
P

(1) CC1=NS(=O)(=O)Oc2ccc(Cl)cc21
(2) CC1=NS(=O)(=O)Oc2ccc(-c3ccc(F)cc3)cc21
Which record would sort first by descending Ki, 1 or 2 ? Identify your selection by its label.
2

(A) CC1=NS(=O)(=O)Oc2ccc(Br)cc21
(B) CC1=NS(=O)(=O)Oc2ccc(F)cc21
Recorded Ki values differ for A and B ; which one is higher? To answer, give the label that identifies your chosen option.
A

* * *

# assayedSystem: hCA I (Homo sapiens)
# Construct: gene CA1; recombinant, obtained in-house as reported earlier; cytosolic
# measurementProtocol: stopped-flow CO2 hydration assay
# Type: biochemical
# reportedConditions: read-out: KI (nM)^a,b / hCA I
# Description: stopped-flow CO2 hydration assay on hCA I
propertyLabel: Ki (nM)

These solved cases illustrate the format of a correct answer.
smilesStructure: CC1=NS(=O)(=O)Oc2cc(Cl)ccc21
propertyLabel: Ki
assayValue: 82100

smilesStructure: COc1ccc(-c2ccc3c(c2)C(C)=NS(=O)(=O)O3)cc1
propertyLabel: Ki
assayValue: 70500

(A) CC1=NS(=O)(=O)Oc2ccc(-c3ccccc3)cc21
(B) CC1=NS(=O)(=O)Oc2ccc(-c3ccc(F)cc3)cc21
(C) CC1=NS(=O)(=O)Oc2cc(F)ccc21
Falling order of Ki, please. Write the labels in rank order as requested.
A, B, C

* * *

Recorded Ki values for a group of compounds are listed next.
# assayedSystem: hCA I (Homo sapiens)
# Construct: gene CA1; recombinant, obtained in-house as reported earlier; cytosolic
# measurementProtocol: stopped-flow CO2 hydration assay
# Type: biochemical
# reportedConditions: read-out: KI (nM)^a,b / hCA I
# Description: stopped-flow CO2 hydration assay on hCA I

Consider the reported Ki for these compounds:
smilesStructure: CC1=NS(=O)(=O)Oc2cc(-c3ccc(Cl)c(Cl)c3)ccc21
Ki: > 100000 nM

smilesStructure: COc1ccc(-c2ccc3c(c2)OS(=O)(=O)N=C3C)cc1
Ki: > 100000 nM

Please look at the following compound next.
Tell me the measured Ki of "COc1cccc2c1C(C)=NS(=O)(=O)O2" , please.
> 100000 nM
